B1: TPR t1 (parent)
chain: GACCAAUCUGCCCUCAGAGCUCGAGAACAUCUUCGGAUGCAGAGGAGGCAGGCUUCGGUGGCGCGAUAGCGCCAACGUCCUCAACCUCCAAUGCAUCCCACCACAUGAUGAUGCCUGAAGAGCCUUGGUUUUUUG

- Variants of: B1
- Method summary: polymerase ribozyme fitness, log enrichment relative to wild type (log ratio); higher = more active; in vitro selection for triplet polymerase activity
Reported polymerase ribozyme fitness (log ratio) values for the following variants.
Value kind: polymerase ribozyme fitness (log ratio)

Variant spec	Measured
C8A C40U C53A	0.276
C13A C15G A37U A103C	-6.73
U9C C11U G17A	-3.22

Attribution: the RNAGym collection of RNA variant scans (doi:10.1073/pnas.2313332121)
